molecular target: EZH2 within the PRC2 complex (Homo sapiens (Human)); assay: EZH2 methyltransferase scintillation proximity assay (SPA) with PRC2 complex; conditions: 3H-SAM methyl transfer to Histone H3 of HeLa mononucleosomes; 30 min preincubation, 1 hour reaction
Sequence (Q15910 whole entry): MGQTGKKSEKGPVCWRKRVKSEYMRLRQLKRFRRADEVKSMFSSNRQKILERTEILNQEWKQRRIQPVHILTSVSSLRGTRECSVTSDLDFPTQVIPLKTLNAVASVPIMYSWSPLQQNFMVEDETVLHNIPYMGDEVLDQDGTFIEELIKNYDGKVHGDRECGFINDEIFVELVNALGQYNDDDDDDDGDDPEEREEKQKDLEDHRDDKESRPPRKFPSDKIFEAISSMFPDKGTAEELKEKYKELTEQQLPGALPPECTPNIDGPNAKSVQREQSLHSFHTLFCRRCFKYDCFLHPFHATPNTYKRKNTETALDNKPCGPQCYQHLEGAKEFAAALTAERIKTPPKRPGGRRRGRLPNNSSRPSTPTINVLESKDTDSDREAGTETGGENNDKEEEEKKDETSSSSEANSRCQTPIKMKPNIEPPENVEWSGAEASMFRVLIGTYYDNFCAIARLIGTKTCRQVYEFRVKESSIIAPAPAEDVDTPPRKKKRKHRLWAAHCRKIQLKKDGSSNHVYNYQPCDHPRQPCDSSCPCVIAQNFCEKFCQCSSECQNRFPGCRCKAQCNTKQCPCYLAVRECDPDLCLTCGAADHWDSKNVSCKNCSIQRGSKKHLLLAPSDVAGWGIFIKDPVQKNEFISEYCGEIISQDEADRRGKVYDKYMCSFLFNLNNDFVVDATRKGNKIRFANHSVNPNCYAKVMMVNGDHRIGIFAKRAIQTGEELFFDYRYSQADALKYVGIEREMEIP
Sequence (O75530 whole entry partner): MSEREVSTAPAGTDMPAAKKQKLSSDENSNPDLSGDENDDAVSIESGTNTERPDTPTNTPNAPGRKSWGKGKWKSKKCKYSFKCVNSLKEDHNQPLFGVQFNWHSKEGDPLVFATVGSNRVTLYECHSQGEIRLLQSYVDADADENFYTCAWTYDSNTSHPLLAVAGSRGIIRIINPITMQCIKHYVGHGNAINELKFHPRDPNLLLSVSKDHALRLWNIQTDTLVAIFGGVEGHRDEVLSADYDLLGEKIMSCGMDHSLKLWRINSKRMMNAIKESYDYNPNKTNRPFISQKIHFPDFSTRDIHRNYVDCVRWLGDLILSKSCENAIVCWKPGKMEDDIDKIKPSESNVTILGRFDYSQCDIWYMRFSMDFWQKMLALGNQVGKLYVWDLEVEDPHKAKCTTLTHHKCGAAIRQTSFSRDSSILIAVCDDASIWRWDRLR
Sequence (Q15022 whole entry partner): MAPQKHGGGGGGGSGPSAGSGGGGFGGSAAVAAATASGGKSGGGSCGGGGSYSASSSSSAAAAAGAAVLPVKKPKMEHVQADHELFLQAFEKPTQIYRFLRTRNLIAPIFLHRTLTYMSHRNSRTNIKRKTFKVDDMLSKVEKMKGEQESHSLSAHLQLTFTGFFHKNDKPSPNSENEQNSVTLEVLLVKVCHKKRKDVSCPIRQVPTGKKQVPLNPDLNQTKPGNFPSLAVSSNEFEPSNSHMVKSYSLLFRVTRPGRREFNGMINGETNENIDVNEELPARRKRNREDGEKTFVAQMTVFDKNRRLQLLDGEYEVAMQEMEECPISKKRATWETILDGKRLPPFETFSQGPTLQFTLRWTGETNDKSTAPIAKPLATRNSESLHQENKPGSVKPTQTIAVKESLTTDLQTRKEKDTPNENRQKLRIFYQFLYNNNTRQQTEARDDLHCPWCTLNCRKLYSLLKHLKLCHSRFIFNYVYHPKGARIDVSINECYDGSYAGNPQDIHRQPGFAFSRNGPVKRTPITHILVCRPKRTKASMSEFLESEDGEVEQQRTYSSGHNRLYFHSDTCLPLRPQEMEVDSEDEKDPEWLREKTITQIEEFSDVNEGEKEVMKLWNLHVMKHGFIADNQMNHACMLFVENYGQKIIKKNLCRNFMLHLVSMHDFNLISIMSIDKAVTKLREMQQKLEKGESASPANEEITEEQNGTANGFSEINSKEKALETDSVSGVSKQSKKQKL
Sequence (Q09028 whole entry partner): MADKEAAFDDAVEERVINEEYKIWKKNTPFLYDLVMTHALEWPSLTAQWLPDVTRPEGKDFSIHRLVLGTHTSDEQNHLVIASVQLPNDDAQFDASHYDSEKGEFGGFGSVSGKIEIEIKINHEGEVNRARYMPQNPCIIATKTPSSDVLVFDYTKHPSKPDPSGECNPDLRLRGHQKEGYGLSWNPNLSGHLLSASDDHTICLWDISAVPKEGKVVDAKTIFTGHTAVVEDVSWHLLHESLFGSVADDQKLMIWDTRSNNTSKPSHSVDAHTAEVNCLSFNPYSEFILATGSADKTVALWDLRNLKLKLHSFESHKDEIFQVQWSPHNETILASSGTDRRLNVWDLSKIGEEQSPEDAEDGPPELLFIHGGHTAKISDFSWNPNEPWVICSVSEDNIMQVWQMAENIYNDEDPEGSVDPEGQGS
Sequence (Q6ZN18 whole entry partner): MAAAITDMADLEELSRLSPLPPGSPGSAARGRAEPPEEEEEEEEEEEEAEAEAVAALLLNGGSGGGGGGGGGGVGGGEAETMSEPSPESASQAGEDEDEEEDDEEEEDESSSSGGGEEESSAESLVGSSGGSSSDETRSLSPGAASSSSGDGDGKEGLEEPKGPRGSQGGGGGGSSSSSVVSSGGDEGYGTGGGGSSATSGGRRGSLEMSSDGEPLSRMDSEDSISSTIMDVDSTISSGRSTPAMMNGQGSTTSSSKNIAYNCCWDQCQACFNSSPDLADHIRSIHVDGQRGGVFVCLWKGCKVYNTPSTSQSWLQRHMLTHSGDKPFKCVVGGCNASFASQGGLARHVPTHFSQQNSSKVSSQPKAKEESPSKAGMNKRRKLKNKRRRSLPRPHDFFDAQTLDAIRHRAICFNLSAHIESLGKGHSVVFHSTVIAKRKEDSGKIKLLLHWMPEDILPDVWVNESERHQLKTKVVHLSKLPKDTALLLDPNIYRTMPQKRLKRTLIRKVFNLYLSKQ
pIC50: −log10 of the molar value.
measurement name: pIC50

{"molecule": "CCC(C)Oc1cc(C#N)cc(C(=O)NCc2c(C)cc(C)[nH]c2=O)c1C (centres unmarked) [Example 44]", "result value": 6.50}
{"molecule": "Cc1cc(C)c(CNC(=O)c2cc(Cl)cc(NC(C)CO)c2C)c(=O)[nH]1 (centres unmarked) [Example 26]", "result value": 6.00}
{"molecule": "Cc1cc(C)c(CNC(=O)c2cc(Cl)cc(OC(C)C)c2Cl)c(=O)[nH]1 [Example 24]", "result value": 6.60}
{"molecule": "CCC(C)Oc1cc(Br)cc(C(=O)NCc2c(C)cc(C)[nH]c2=O)c1C (centres unmarked) [Example 20]", "result value": 7.89}
{"molecule": "Cc1cc(Cc2ccccc2)c(CNC(=O)c2cc(Br)cc(NC(C)C)c2C)c(=O)[nH]1 [Example 4]", "result value": 7.30}
{"molecule": "COc1cccc(C(=O)NCc2c(C)cc(C)[nH]c2=O)c1C [Example 36]", "result value": 5.60}
{"molecule": "CCCc1cc(C)[nH]c(=O)c1CNC(=O)c1cc(-c2ccc(N3CCN(C)CC3)nc2)cc(NC(C)C)c1C [Example 2]", "result value": 7.40}
{"molecule": "CCCc1cc(C)[nH]c(=O)c1CNC(=O)c1cc(Br)cc(NC(C)C)c1C [Example 1]", "result value": 6.30}
